# System: UO-31
# methodNotes: NCI tumour cell line growth inhibition, 48 h
Calls of active or inactive are those of the source. Rule as the data show it: active = GI50 up to about 1.1 µM and inactive = higher.
Response enum: T for active, F for inactive

{"compound": "C=C1[C@@H]2CCC(C)(C)[C@H]1CCC(=O)[C@@H]2C(=O)OC", "categoryLabel": "F"}
{"compound": "NC(=S)N1N=C2CCCCCC[C@@H]2[C@H]1c1ccccc1", "categoryLabel": "F"}

Attention now shifts to the item below.
Kindly provide the recorded test outcome for the following compound: O=c1[nH]nc(Cc2ccc([N+](=O)[O-])cc2)[nH]1
F

---

# System: DU-145
# methodNotes: NCI tumour cell line growth inhibition, 48 h
Activity calls are given as the source filed them. Rule as the data show it: active = GI50 up to about 1.1 µM and inactive = higher.
assayReadout: GI50

{"compound": "NC(=O)C(=CNC(=S)Nc1ccc(Cl)c(Cl)c1)C(N)=O", "measurement": "> 100 µM (inactive)"}
{"compound": "C/C=C\\C(CC(=O)NCCC1CN(S(=O)(=O)c2ccc(C)cc2)c2ccccc21)CC(=O)OC (stereo unspecified)", "measurement": "> 100 µM (inactive)"}

Provide each entry's GI50 from the list below.
1. COc1cc(O)c2c(c1)C(O)C(O)CC1OC1C(=O)/C=C/CC(C)OC2=O (stereo unspecified)
2. CCOC(=O)C1=C(C(=O)OCC)SC2(S1)C(C(=O)OCC)=C(C(=O)OCC)Sc1c2ssc1=O
3. CCn1ncc2c(=O)n3ncn(-c4ccc(Br)cc4)c3nc21
4. CC(=O)CCN1CC2CN=NC2(C#N)C1 (stereo unspecified)

1: 15.7 µM (inactive); 2: 0.857 µM (active); 3: > 100 µM (inactive); 4: > 100 µM (inactive)

Provide each entry's GI50 from the list below.
1. CCC(C(=O)C(=O)OC)P1(=O)OC(C)(C)CN1C(C)(C)C (stereo unspecified)
2. O=C1CSC(c2c[nH]c3ccccc23)N1c1ccc(Cl)cc1Cl (stereo unspecified)
3. COc1ccc(/N=C(\C)c2ccncc2)cc1

> 100 µM (inactive)
> 100 µM (inactive)
83 µM (inactive)

Provide each entry's GI50 from the list below.
1. Cn1ccnc1Sc1ccc(/C=N/NC(=O)c2ccccc2[N+](=O)[O-])cc1[N+](=O)[O-]
2. CN1CCN(Cn2nc(-c3ccccc3)n(/N=C/c3ccc(-c4ccc(Cl)cc4Cl)o3)c2=S)CC1
3. CCC1CC(C)C(O)/C=C/C=C/CC(C)OC(=O)CC(O)C(OC)C1OC1OC(C)CC(O)(C(C)=O)C1O (stereo unspecified)
4. N#CC(c1cc(Cl)ncn1)c1nc2cc(C(F)(F)F)ccc2s1 (stereo unspecified)
5. O=C(c1cccs1)N(C(=O)N1CCN(c2ccccc2)CC1)S(=O)(=O)c1ccccc1
6. O=c1ssc2ncccc12
7. O=C1Cc2cn[nH]c2-c2ccccc2N1

1. 66.7 µM (inactive)
2. 8.91 µM (inactive)
3. 96.6 µM (inactive)
4. 12.9 µM (inactive)
5. 16.5 µM (inactive)
6. 33.7 µM (inactive)
7. 40.7 µM (inactive)

Provide each entry's GI50 from the list below.
1. COC(Cc1ccccc1)NC(C)=O (stereo unspecified)
2. O=C1C=Cc2c(Br)sc(Br)c21
3. CC(=O)NC1C(OC(C)C(=O)NC(C)C(=O)NC(CCC(=O)NCCCCCNc2ccc([N+](=O)[O-])c3[nH]c4ccccc4c(=O)c23)C(N)=O)C(O)C(CO)OC1(C)OCc1ccccc1 (stereo unspecified)
4. N#CCCN(CCC#N)c1ccc(/C=C2\N=C(c3ccccc3)N(NC(=O)c3ccncc3)C2=O)cc1
5. CC1(C)CC(=O)C(=CNC(=S)c2ccccc2)C(=O)C1

1: > 100 µM (inactive); 2: 43.8 µM (inactive); 3: 64.6 µM (inactive); 4: > 100 µM (inactive); 5: > 100 µM (inactive)

Where do these numbers come from? They come from ChEMBL document CHEMBL1201862.
